Experiment: PSAC antagonists in infected red cells, primary screen, cell-based, P. falciparum Indochina, OD700, 2 h (AID 1155);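 also: lysis reports solute entry through the parasite surface anion channel PSAC; channel blockers reduce lysis of infected cells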
Conditions: P. falciparum Indochina infected erythrocytes, osmotic lysis OD700; higher = more signal, called active from +8 up or from −8 down
z-score values, listed per item

Compound | z-score
C[C@H]1Cc2c(COc3ccccc3)nc3c(c2CO1)CN(CCOc1ccccc1)CC3 | 0.484
CCOC(=O)[C@H](CC(C)C)NC(=O)CCC1CC(OC(=O)NCCc2ccc(F)cc2)CC2(CCCC(COC(=O)NCC3CCCCC3)O2)O1 (stereo not given in full) | 0.132
CC(=O)OC[C@H]1O[C@@H](ON=C(C)CCN2CCCc3nc(C)c(C)cc32)[C@H](OC(C)=O)[C@@H](OC(C)=O)[C@@H]1OC(C)=O | 0.0956
CCOC(=O)NN=C1C[C@@H](O)[C@@H](O)[C@@H]2[C@@H]3C(=O)N([C@@H](C)c4ccccc4)C(=O)[C@@H]3CC[C@H]12 | 0.452
CC=CC1=C(CO)C(=O)[C@@H]2O[C@@H]2C1=O | -0.344
O=C(C=Cc1ccc2c(c1)OCO2)c1ccc(F)cc1 | 3.22
CCOC(=O)[C@H](Cc1ccccc1)NC(=O)CCC1CC(OC(=O)NCCc2ccc(F)cc2)CC2(CCCC(COC(=O)NCC3CCCCC3)O2)O1 (stereo not given in full) | 0.672
COC(=O)CC=C[C@@H](C)[C@@H](C=NO[C@H](C)c1cn([C@H](CO)Cc2ccccc2)nn1)OC | 0.0995
COc1ccc(O[C@H]2C=C[C@@H](c3ccccc3)O[C@@H]2CON=CC[C@@H]2C=C[C@H](OC(C)=O)[C@@H](COC(C)=O)O2)cc1 | 1.95
C=CC1=C[C@H](O)[C@@H]2O[C@@H]2C12OCCCO2 | 0.191
